# experimental-system: human VR1 (Homo sapiens, UniProt Q8NER1)
# Sequence (Q8NER1 whole entry): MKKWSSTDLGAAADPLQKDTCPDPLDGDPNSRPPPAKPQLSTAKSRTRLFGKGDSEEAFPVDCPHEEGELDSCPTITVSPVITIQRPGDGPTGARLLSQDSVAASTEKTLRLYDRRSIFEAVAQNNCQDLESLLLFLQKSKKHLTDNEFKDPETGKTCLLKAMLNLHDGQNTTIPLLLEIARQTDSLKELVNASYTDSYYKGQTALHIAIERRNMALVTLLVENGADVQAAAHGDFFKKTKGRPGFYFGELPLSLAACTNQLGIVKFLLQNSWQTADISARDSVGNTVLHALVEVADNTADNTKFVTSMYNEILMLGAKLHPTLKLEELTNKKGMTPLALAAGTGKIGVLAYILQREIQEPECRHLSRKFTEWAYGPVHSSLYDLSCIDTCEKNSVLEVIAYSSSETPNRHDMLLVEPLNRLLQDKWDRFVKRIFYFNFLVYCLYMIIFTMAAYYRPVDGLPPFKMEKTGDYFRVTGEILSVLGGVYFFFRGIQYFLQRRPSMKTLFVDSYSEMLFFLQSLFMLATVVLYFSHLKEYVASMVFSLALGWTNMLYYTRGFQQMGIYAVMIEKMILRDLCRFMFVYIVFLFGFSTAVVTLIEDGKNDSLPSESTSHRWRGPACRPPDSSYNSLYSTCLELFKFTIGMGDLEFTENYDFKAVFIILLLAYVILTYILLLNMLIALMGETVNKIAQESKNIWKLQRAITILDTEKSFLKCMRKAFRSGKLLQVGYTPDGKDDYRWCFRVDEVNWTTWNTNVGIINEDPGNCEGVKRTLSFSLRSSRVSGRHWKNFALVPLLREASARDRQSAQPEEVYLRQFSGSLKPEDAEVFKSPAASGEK
# experimental-details: Acid stimulation assay (acid-induced intracellular calcium change, FDSS 6000)
# Format: cell-based
# test-conditions: final assay buffer pH5.8, 15 min pre-incubation, read-out: IC50 (nM) Low pH
The following molecules are listed with their measured log10(IC50) values.
Annotation: log10 of IC50, nM basis.

Some solved entries appear below for comparison.
[
  {
    "molecule": "Cc1cc([C@@H](C)NC(=O)c2ccc3nc(N4CCCC4)ccc3c2)c(F)cc1NS(C)(=O)=O [Example 68]",
    "log10(IC50)": 2.47
  },
  {
    "molecule": "C[C@@H](NC(=O)c1cnc2cc(C(F)(F)F)ccc2c1)c1ccc(NS(C)(=O)=O)c(F)c1 [Example 34]",
    "log10(IC50)": 1.41
  },
  {
    "molecule": "Cc1cc([C@@H](C)NC(=O)c2ccc3nc(C(F)(F)F)cc(N4CCC(C(F)(F)F)CC4)c3c2)c(F)cc1NS(C)(=O)=O [Example 76]",
    "log10(IC50)": 1.68
  },
  {
    "molecule": "Cc1cc([C@@H](C)NC(=O)c2ccc3cc(-n4cccn4)ccc3c2)c(F)cc1NS(C)(=O)=O [Example 105]",
    "log10(IC50)": 2.17
  },
  {
    "molecule": "Cc1cc([C@@H](C)NC(=O)c2ccc3nc(C(F)(F)F)cc(OC4CCOCC4)c3c2)c(F)cc1NS(C)(=O)=O [Example 94]",
    "log10(IC50)": 1.54
  },
  {
    "molecule": "Cc1cc([C@@H](C)NC(=O)c2ccc3nc(C(F)(F)F)cc(N4CCC[C@@H]4CO)c3c2)c(F)cc1NS(C)(=O)=O [Example 93]",
    "log10(IC50)": 2.57
  }
]

Here is the next item to consider.
Tell me measured log10(IC50) for C[C@@H](NC(=O)c1ccc2cc(C(F)(F)F)ccc2n1)c1cc(F)c(NS(C)(=O)=O)c(F)c1 [Example 3] please.
0.60

###

# experimental-system: human VR1 (Homo sapiens)
# experimental-details: Acid stimulation assay (acid-induced intracellular calcium change, FDSS 6000)
# Type: cell-based
# test-conditions: final assay buffer pH5.8, 15 min pre-incubation, read-out: IC50 (nM) Low pH
The following compounds are listed with their measured IC50 values.
// return numeric value only (unit: nM, not printed)

[
  {
    "compound": "Cc1cc([C@@H](C)NC(=O)c2ccc3nc(C(F)(F)F)cc(N4CCCCC4)c3c2)c(F)cc1NS(C)(=O)=O [Example 70]",
    "assay-metric": "IC50",
    "endpoint-result": 26
  }
]

Write down measured IC50 (human VR1 (Homo sapiens)) for this compound. Cc1cc([C@@H](C)NC(=O)c2ccc3cc(C(C)(C)C)ccc3c2)ccc1NS(C)(=O)=O [Example 1]
3

Write down measured IC50 (human VR1 (Homo sapiens)) for this compound. Cc1cc([C@@H](C)NC(=O)c2ccc3cc(N4CCCC4)ccc3c2)ccc1NS(C)(=O)=O [Example 21]
44

Write down measured IC50 (human VR1 (Homo sapiens)) for this compound. Cc1cc([C@@H](C)NC(=O)c2ccc3nc(C(F)(F)F)nc(N4CC(C)OC(C)C4)c3c2)c(F)cc1NS(C)(=O)=O (some centres unmarked) [Example 86]
7

Write down measured IC50 (human VR1 (Homo sapiens)) for this compound. Cc1cc([C@@H](C)NC(=O)c2ccc3cc(C(F)(F)F)ccc3c2)ccc1NS(C)(=O)=O [Example 51]
1

Write down measured IC50 (human VR1 (Homo sapiens)) for this compound. Cc1cc([C@@H](C)NC(=O)c2ccc3nc(N4CCC(F)(F)CC4)ccc3c2)c(F)cc1NS(C)(=O)=O [Example 110]
94
